Test system: L5178Y
Experiment: Cytotoxicity against mouse L5178Y cells at 3 ug/mL after 72 hrs by MTT assay
Type: functional
Parameter inhibition at 3 µg/mL: see the listing below.
Output spec: scalar in %, unitless text.

Solved cases (8 shown):
[[record]]
compound = "CC(/C=C/C(O)C(C)(C)O)=C\\C=C\\C(C)=C1\\C(=O)C[C@H]2[C@@]3(C)CC[C@@H](O)[C@](C)(C(=O)O)[C@@H]3CC[C@]12C (some centres undefined) [GLOBOSTELLATIC ACID L, M]"
subject_of_test = "L5178Y"
measurement_unit = "%"
obs_value = 100

[[record]]
compound = "C/C(C(=O)/C=C/C(C)=C/C=C/C(C)(C)O)=C1/C(=O)C[C@H]2[C@@]3(C)CC[C@@H](O)[C@](C)(C(=O)O)[C@@H]3CC[C@]12C [GLOBOSTELLATIC ACID F]"
subject_of_test = "L5178Y"
measurement_unit = "%"
obs_value = 42

[[record]]
compound = "CC(=O)O[C@@H]1CC[C@@]2(C)[C@@H](CC[C@]3(C)/C(=C(C)/C=C/C=C(\\C)C(CC=C(C)C)O[C@@H]4OC[C@H](O)[C@H](O)[C@@H]4O)C(=O)C[C@@H]23)C1(C)C (some centres undefined)"
subject_of_test = "L5178Y"
measurement_unit = "%"
obs_value = 100

[[record]]
compound = "CCOC(/C=C/C(C)=C/C=C/C(C)=C1/C(=O)C[C@H]2[C@@]3(C)CC[C@@H](O)[C@](C)(C(=O)O)[C@@H]3CC[C@]12C)C(C)(C)O (some centres undefined) [GLOBOSTELLATIC ACID H, I]"
subject_of_test = "L5178Y"
measurement_unit = "%"
obs_value = 100

[[record]]
compound = "COC(/C=C/C(C)=C/C=C/C(C)=C1/C(=O)C[C@H]2[C@@]3(C)CC[C@@H](O)[C@](C)(C(=O)O)[C@@H]3CC[C@]12C)C(C)(C)O (some centres undefined) [GLOBOSTELLATIC ACID D, G]"
subject_of_test = "L5178Y"
measurement_unit = "%"
obs_value = 100

[[record]]
compound = "CC(C)=CCC(O[C@H]1OC[C@@H](O)[C@@H](O)[C@H]1O)/C(C)=C/C=C/C(C)=C1\\C(=O)C[C@H]2[C@@]3(C)CC[C@@H](O)C(C)(C)[C@@H]3CC[C@]12C (some centres undefined)"
subject_of_test = "L5178Y"
measurement_unit = "%"
obs_value = 100

[[record]]
compound = "CC(=O)O[C@@H]1CC[C@@]2(C)[C@@H](CC[C@]3(C)/C(=C(\\C)C(=O)/C=C/C(C)=C/C=C/C(C)(C)O)C(=O)C[C@@H]23)[C@@]1(C)C(=O)O [GLOBOSTELLATIC ACIDS A]"
subject_of_test = "L5178Y"
measurement_unit = "%"
obs_value = 100

[[record]]
compound = "C/C(C(=O)/C=C/C(C)=C/C=C/C(C)(C)O)=C1/C(=O)C[C@H]2[C@@]3(C)CC[C@H](O)C(C)(C)[C@@H]3CC[C@]12C [GLOBOSTELLETIN]"
subject_of_test = "L5178Y"
measurement_unit = "%"
obs_value = 66


Here is another compound to look at.
For this compound ( CCOC(/C=C/C(C)=C/C=C/C(C)=C1/C(=O)C[C@H]2[C@@]3(C)CC[C@@H](OC(C)=O)[C@](C)(C(=O)O)[C@@H]3CC[C@]12C)C(C)(C)O (some centres undefined) [GLOBOSTELLATIC ACID J, K] ), measured inhibition at 3 µg/mL is 24

----------
System: L5178Y
Assay: Cytotoxicity against mouse L5178Y cells after 72 hrs by MTT assay
Assay type: functional
Parameter ED50: see the listing below.
Output spec: scalar in nmol, unitless text.

Solved cases (2 shown):
[[record]]
compound = "COC(/C=C/C(C)=C/C=C/C(C)=C1/C(=O)C[C@H]2[C@@]3(C)CC[C@@H](O)[C@](C)(C(=O)O)[C@@H]3CC[C@]12C)C(C)(C)O (stereo partly drawn)"
obs_value = 0.39

[[record]]
compound = "CC(=O)O[C@@H]1CC[C@@]2(C)[C@@H](CC[C@]3(C)/C(=C(C)/C=C/C=C(\\C)C(CC=C(C)C)O[C@@H]4OC[C@H](O)[C@H](O)[C@@H]4O)C(=O)C[C@@H]23)C1(C)C (stereo partly drawn)"
obs_value = 0.22


For this compound ( CCOC(/C=C/C(C)=C/C=C/C(C)=C1/C(=O)C[C@H]2[C@@]3(C)CC[C@@H](OC(C)=O)[C@](C)(C(=O)O)[C@@H]3CC[C@]12C)C(C)(C)O (stereo partly drawn) ), measured ED50 is 8.28

The reported measurements were obtained from ChEMBL document CHEMBL1157246.
